# system: T1, Mtr4ΔF (fist-less) (Saccharomyces cerevisiae, UniProt P47047 1-666+=GGG+814-1073, internal_change)
# T1 sequence: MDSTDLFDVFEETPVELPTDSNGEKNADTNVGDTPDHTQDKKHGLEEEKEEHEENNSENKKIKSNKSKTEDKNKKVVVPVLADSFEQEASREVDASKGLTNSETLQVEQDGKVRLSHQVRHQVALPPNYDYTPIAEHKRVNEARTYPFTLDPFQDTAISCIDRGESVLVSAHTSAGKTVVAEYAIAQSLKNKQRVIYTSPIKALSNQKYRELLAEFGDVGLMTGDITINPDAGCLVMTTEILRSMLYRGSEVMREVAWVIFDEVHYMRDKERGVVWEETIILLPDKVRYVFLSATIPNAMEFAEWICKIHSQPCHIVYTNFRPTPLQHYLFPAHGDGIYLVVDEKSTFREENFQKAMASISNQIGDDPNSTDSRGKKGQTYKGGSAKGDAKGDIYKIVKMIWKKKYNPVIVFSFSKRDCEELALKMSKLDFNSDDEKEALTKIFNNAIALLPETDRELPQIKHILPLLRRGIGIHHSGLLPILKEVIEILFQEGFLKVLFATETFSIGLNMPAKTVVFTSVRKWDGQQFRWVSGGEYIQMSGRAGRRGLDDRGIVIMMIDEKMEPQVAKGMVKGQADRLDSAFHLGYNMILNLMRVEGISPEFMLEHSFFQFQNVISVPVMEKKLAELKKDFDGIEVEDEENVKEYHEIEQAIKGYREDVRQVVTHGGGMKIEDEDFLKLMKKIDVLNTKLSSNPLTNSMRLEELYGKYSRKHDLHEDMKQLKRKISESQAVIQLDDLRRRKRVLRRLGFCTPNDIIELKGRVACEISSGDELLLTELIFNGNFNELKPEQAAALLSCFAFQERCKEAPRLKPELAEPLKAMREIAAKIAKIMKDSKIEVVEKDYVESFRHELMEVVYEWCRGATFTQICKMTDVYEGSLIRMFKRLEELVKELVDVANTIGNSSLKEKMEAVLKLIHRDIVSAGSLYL
# test-summary: EMSA
measure: Kd (nM)
One number for each entry, in nM.

# input binder: dsRNA16 (dsRNA) RNA 1: GCGUCUUUACGGUGCUUAAAAA RNA 2: AGCACCGUAAAGACGC ; wanted: its Kd
1420
